# key: entry, value: relative viability
Test system: LXF-289
Test: relative viability (nuclei count vs DMSO), 5 days (fraction); higher = more cells survive
Conditions: first compound 0.005 µM
observation type: relative viability

INSERT INTO measurements (compound, study_system, number) VALUES
  ('COc1cc2nccc(Oc3ccc(NC(=O)Nc4cc(C)on4)c(Cl)c3)c2cc1OC [Tivozanib] + CC(C)C[C@H](NC(=O)[C@H](Cc1ccccc1)NC(=O)c1cnccn1)B(O)O [Bortezomib] (partner 0.002 µM)', 'LXF-289', 0.952),
  ('COc1cc2nccc(Oc3ccc(NC(=O)Nc4cc(C)on4)c(Cl)c3)c2cc1OC [Tivozanib] + COc1cccc2cc(-c3nc([C@H]4CC[C@H](C(=O)O)CC4)n4ncnc(N)c34)[nH]c12 [OSI-027] (partner 0.5 µM)', 'LXF-289', 0.812),
  ('Nc1ccn([C@@H]2O[C@H](CO)[C@@H](O)[C@@H]2O)c(=O)n1 [Cytarabine] + CCNC(=O)c1noc(-c2cc(C(C)C)c(O)cc2O)c1-c1ccc(CN2CCOCC2)cc1 [Luminespib] (partner 0.01 µM)', 'LXF-289', 0.673),
  ('Nc1ccn([C@@H]2O[C@H](CO)[C@@H](O)[C@@H]2O)c(=O)n1 [Cytarabine] + CC(=O)Nc1cccc(-n2c(=O)n(C3CC3)c(=O)c3c(Nc4ccc(I)cc4F)n(C)c(=O)c(C)c32)c1 [Trametinib] (partner 0.02 µM)', 'LXF-289', 0.632),
  ('Nc1ccn([C@@H]2O[C@H](CO)[C@@H](O)[C@@H]2O)c(=O)n1 [Cytarabine] + C[C@]1(O)C[C@@H](c2nc(-c3ccc4ccc(-c5ccccc5)nc4c3)c3c(N)nccn32)C1 [Linsitinib] (partner 1 µM)', 'LXF-289', 0.859),
  ('Nc1ccn([C@@H]2O[C@H](CO)[C@@H](O)[C@@H]2O)c(=O)n1 [Cytarabine] + COc1cc2c(Oc3ccc(NC(=O)C4(C(=O)Nc5ccc(F)cc5)CC4)cc3F)ccnc2cc1OCCCN1CCOCC1 [Foretinib] (partner 0.25 µM)', 'LXF-289', 0.939);

---

Tested on: HCC-44
Assay: relative viability (nuclei count vs DMSO), 5 days (fraction); higher = more cells survive
Conditions: first compound 0.5 µM
Listed here are molecules together with their documented relative viability.
observation type: relative viability

INSERT INTO results (molecule, observation_type, number) VALUES
  ('Nc1ccn([C@@H]2O[C@H](CO)[C@@H](O)[C@@H]2O)c(=O)n1 [Cytarabine] + C[C@@H](Oc1cc(-c2cnn(C3CCNCC3)c2)cnc1N)c1c(Cl)ccc(F)c1Cl [Crizotinib] (partner 1 µM)', 'relative viability', 0.378),
  ('COc1cc2nccc(Oc3ccc(NC(=O)Nc4cc(C)on4)c(Cl)c3)c2cc1OC [Tivozanib] + C[C@@H](Oc1cc(-c2cnn(C3CCNCC3)c2)cnc1N)c1c(Cl)ccc(F)c1Cl [Crizotinib] (partner 1 µM)', 'relative viability', 0.811),
  ('Nc1ccn([C@@H]2O[C@H](CO)[C@@H](O)[C@@H]2O)c(=O)n1 [Cytarabine] + C[C@]1(O)C[C@@H](c2nc(-c3ccc4ccc(-c5ccccc5)nc4c3)c3c(N)nccn32)C1 [Linsitinib] (partner 1 µM)', 'relative viability', 0.397),
  ('COc1cc2nccc(Oc3ccc(NC(=O)Nc4cc(C)on4)c(Cl)c3)c2cc1OC [Tivozanib] + CC1(C)CCC(c2ccc(Cl)cc2)=C(CN2CCN(c3ccc(C(=O)NS(=O)(=O)c4ccc(N[C@H](CCN5CCOCC5)CSc5ccccc5)c(S(=O)(=O)C(F)(F)F)c4)cc3)CC2)C1 [Navitoclax] (partner 0.5 µM)', 'relative viability', 0.944),
  ('COc1cc2nccc(Oc3ccc(NC(=O)Nc4cc(C)on4)c(Cl)c3)c2cc1OC [Tivozanib] + NC(=O)Nc1cc(-c2cccc(F)c2)sc1C(=O)N[C@H]1CCCNC1 [AZD7762] (partner 0.2 µM)', 'relative viability', 1.01),
  ('Nc1ccn([C@@H]2O[C@H](CO)[C@@H](O)[C@@H]2O)c(=O)n1 [Cytarabine] + O=C(c1cc(Cc2n[nH]c(=O)c3ccccc23)ccc1F)N1CCN(C(=O)C2CC2)CC1 [Olaparib] (partner 8 µM)', 'relative viability', 0.848),
  ('Nc1ccn([C@@H]2O[C@H](CO)[C@@H](O)[C@@H]2O)c(=O)n1 [Cytarabine] + N=C(N)NC(=N)NCCc1ccccc1 [Phenformin] (partner 250 µM)', 'relative viability', 0.108),
  ('COc1cc2nccc(Oc3ccc(NC(=O)Nc4cc(C)on4)c(Cl)c3)c2cc1OC [Tivozanib] + COc1cccc2cc(-c3nc([C@H]4CC[C@H](C(=O)O)CC4)n4ncnc(N)c34)[nH]c12 [OSI-027] (partner 0.5 µM)', 'relative viability', 0.464),
  ('COc1cc2nccc(Oc3ccc(NC(=O)Nc4cc(C)on4)c(Cl)c3)c2cc1OC [Tivozanib] + O=C(c1cc(Cc2n[nH]c(=O)c3ccccc23)ccc1F)N1CCN(C(=O)C2CC2)CC1 [Olaparib] (partner 8 µM)', 'relative viability', 0.999),
  ('COc1cc2nccc(Oc3ccc(NC(=O)Nc4cc(C)on4)c(Cl)c3)c2cc1OC [Tivozanib] + O=C(CCCCCCC(=O)Nc1ccccc1)NO [Vorinostat] (partner 1 µM)', 'relative viability', 1.02),
  ('Nc1ccn([C@@H]2O[C@H](CO)[C@@H](O)[C@@H]2O)c(=O)n1 [Cytarabine] + NC(=O)Nc1cc(-c2cccc(F)c2)sc1C(=O)N[C@H]1CCCNC1 [AZD7762] (partner 0.2 µM)', 'relative viability', 0.249),
  ('COc1cc2nccc(Oc3ccc(NC(=O)Nc4cc(C)on4)c(Cl)c3)c2cc1OC [Tivozanib] + C[C@]1(O)C[C@@H](c2nc(-c3ccc4ccc(-c5ccccc5)nc4c3)c3c(N)nccn32)C1 [Linsitinib] (partner 1 µM)', 'relative viability', 0.685);

---

System: CAL-12T
Experiment: relative viability (nuclei count vs DMSO), 5 days (fraction); higher = more cells survive
Conditions: first compound 158.11 µM
observation type: relative viability

INSERT INTO assay_data (molecule, study_system, number) VALUES
  ('O=C(O)CCCCC(CCSCc1ccccc1)SCc1ccccc1 (stereo not given) [CPI-613] + Cc1nc(Nc2ncc(C(=O)Nc3c(C)cccc3Cl)s2)cc(N2CCN(CCO)CC2)n1 [Dasatinib] (partner 0.075 µM)', 'CAL-12T', 0.0331),
  ('O=C(O)CCCCC(CCSCc1ccccc1)SCc1ccccc1 (stereo not given) [CPI-613] + Cc1nc(NC(=O)N2CCC[C@H]2C(N)=O)sc1-c1ccnc(C(C)(C)C(F)(F)F)c1 [Alpelisib] (partner 2 µM)', 'CAL-12T', 0.0352),
  ('O=C(O)CCCCC(CCSCc1ccccc1)SCc1ccccc1 (stereo not given) [CPI-613] + N=C(N)NC(=N)NCCc1ccccc1 [Phenformin] (partner 250 µM)', 'CAL-12T', 0.0459),
  ('O=C(O)CCCCC(CCSCc1ccccc1)SCc1ccccc1 (stereo not given) [CPI-613] + O=C(CCCCCCC(=O)Nc1ccccc1)NO [Vorinostat] (partner 1 µM)', 'CAL-12T', 0.0538),
  ('O=C(O)CCCCC(CCSCc1ccccc1)SCc1ccccc1 (stereo not given) [CPI-613] + C[C@@H](Oc1cc(-c2cnn(C3CCNCC3)c2)cnc1N)c1c(Cl)ccc(F)c1Cl [Crizotinib] (partner 1 µM)', 'CAL-12T', 0.0667);

---

System: NCI-H661
Test: relative viability (nuclei count vs DMSO), 5 days (fraction); higher = more cells survive
Settings: first compound 8 µM
Here, each record is paired with measured relative viability data.
observation type: relative viability

INSERT INTO measurements (compound, study_system, observation_type, number) VALUES
  ('O=c1[nH]c2ccccc2n1C1CCN(CCCC(c2ccc(F)cc2)c2ccc(F)cc2)CC1 [Pimozide] + Cc1cc(Nc2cc(N3CCN(C)CC3)nc(Sc3ccc(NC(=O)C4CC4)cc3)n2)n[nH]1 [Tozasertib] (partner 0.1 µM)', 'NCI-H661', 'relative viability', 0.316),
  ('O=c1[nH]c2ccccc2n1C1CCN(CCCC(c2ccc(F)cc2)c2ccc(F)cc2)CC1 [Pimozide] + CC(C)C[C@H](NC(=O)[C@H](Cc1ccccc1)NC(=O)c1cnccn1)B(O)O [Bortezomib] (partner 0.002 µM)', 'NCI-H661', 'relative viability', 0.852),
  ('O=c1[nH]c2ccccc2n1C1CCN(CCCC(c2ccc(F)cc2)c2ccc(F)cc2)CC1 [Pimozide] + C[C@]1(O)C[C@@H](c2nc(-c3ccc4ccc(-c5ccccc5)nc4c3)c3c(N)nccn32)C1 [Linsitinib] (partner 1 µM)', 'NCI-H661', 'relative viability', 0.536),
  ('O=c1[nH]c2ccccc2n1C1CCN(CCCC(c2ccc(F)cc2)c2ccc(F)cc2)CC1 [Pimozide] + Cc1nc(NC(=O)N2CCC[C@H]2C(N)=O)sc1-c1ccnc(C(C)(C)C(F)(F)F)c1 [Alpelisib] (partner 2 µM)', 'NCI-H661', 'relative viability', 0.766),
  ('O=c1[nH]c2ccccc2n1C1CCN(CCCC(c2ccc(F)cc2)c2ccc(F)cc2)CC1 [Pimozide] + CS(=O)(=O)CCNCc1ccc(-c2ccc3ncnc(Nc4ccc(OCc5cccc(F)c5)c(Cl)c4)c3c2)o1 [Lapatinib] (partner 2 µM)', 'NCI-H661', 'relative viability', 0.467);
